// values below are reported TGI
# Tested on: OVCAR-8 ovarian
# PROTOCOL: NCI tumour cell line growth inhibition, 48 h
MEASURED QUANTITY: TGI

INSERT INTO measurements (molecule, val) VALUES
  ('NC(=O)Nc1ccc(C(=O)NCCCNC(=O)c2ccc(NC(N)=O)cc2)cc1', '> 100 µM'),
  ('COc1ccccc1C(N)c1ccccc1 (stereo unspecified)', '> 100 µM'),
  ('CC1(C)CCCCCCC2CC2CCCCCC(C)(C)C1=O (stereo unspecified)', '> 100 µM'),
  ('Oc1ccc(-c2cn3cc(Cl)sc3n2)cc1', '> 100 µM'),
  ('CC1C2(C)OC(=N)C(C#N)(C(C)O2)C1(C#N)C#N (stereo unspecified)', '> 100 µM'),
  ('CCOC(=O)c1c(-c2ccccc2)nc2c(OC)nccn12', '> 100 µM'),
  ('O=NN/C(=C1\Nc2ccc([N+](=O)[O-])cc2NC1=O)C(O)c1ccc([N+](=O)[O-])cc1 (stereo unspecified)', '> 100 µM'),
  ('COc1ccc(C(=O)CC(=O)C(=O)Nc2ccc(C)c(C)c2)cc1', '> 100 µM'),
  ('O=C1C(c2c(O)[nH]c3ccccc23)=Nc2ccc(Br)cc21', '49.4 µM'),
  ('COc1ccc2c(c1)/C(=C\c1c(Cl)n(C)c3ccccc13)C(=O)N2', '11.9 µM'),
  ('CCOC(=O)C(C(=O)OCC)=C1N[C@H](C(=O)OCC)CS1', '> 100 µM');
